B1: SLC19A2 (parent)
chain: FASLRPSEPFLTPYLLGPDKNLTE

# Variants of: B1
# PROCEDURE_DETAILS: protein stability index of a GFP-peptide fusion (GPS, HEK-293T) (PSI 1-6); higher = more stable;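 also: lentivirally expressed fusions sorted by FACS into six bins by GFP to DsRed ratio, PSI derived from sequencing read proportions per bin multiplied by bin number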
# MEASUREMENT_CONTEXT: c terminus: a fixed tail appended
METRIC: protein stability index
Could you respond with only the numeric value?

Known results for variants:
variant_identifier=S7K experimental_result=1.98
variant_identifier=Y14E experimental_result=2.76
variant_identifier=A2T experimental_result=1.97
variant_identifier=P18E experimental_result=2.27
variant_identifier=E8T experimental_result=1.81
variant_identifier=D19T experimental_result=1.9

stdin: Provide only the value of recorded protein stability index for P18L
stdout: 1.8

stdin: Provide only the value of recorded protein stability index for P9I
stdout: 1.77

Reference source: the supplement of paper PMC10567573
